- assay.procedure: Therapeutic index, ratio of compound cytotoxic activity for HEK293T cells to antimycobacterial activity against Mycobacterium tuberculosis H37Rv ATCC 27294
- Type: cell-based, HEK-293T
- details: human, read-out: TI
measurement.type: selectivity ratio

Given the compound O=C(NCc1cc(F)ccc1F)c1nc2cc(Cl)ccc2s1 , what is its reported selectivity ratio?
> 64

====

- assay.procedure: Cytotoxicity against HEK293T cells assessed as inhibition of cell viability at 50 ug/ml after 72 hrs by MTT assay relative to control
- Assay type: cell-based, HEK-293T
- details: human, read-out: INH
Reported cytotoxicity at 72 h, 50 ug/ml values for a set of compounds
Your answer is read as %, so omit the unit and give the number.

The examples below pair each entry with its known result.
# smiles.code, cytotoxicity at 72 h, 50 ug/ml / %
rows = [
    ("O=C(NCc1ccccc1)c1nc2cc(C(F)(F)F)ccc2s1", 40.1),
    ("O=C(NCCc1ccccc1)c1nc2ccccc2s1", 22),
    ("N#Cc1ccc(CNC(=O)c2nc3ccccc3s2)cc1", 36),
    ("O=C(NCc1cc(F)ccc1F)c1nc2ccccc2s1", 52.1),
    ("O=C(NCc1ccccc1Cl)c1nc2ccccc2s1", 35.6),
    ("O=C(NCc1ccccc1)c1nc2ccccc2s1", 41.2),
    ("O=C(NCc1cccc(F)c1)c1nc2ccccc2s1", 44.6),
    ("O=C(NCc1ccccc1Cl)c1nc2cc(Cl)ccc2s1", 36),
]

Next compound, please.
Please give the measured cytotoxicity at 72 h, 50 ug/ml for this compound: O=C(NCc1ccc([N+](=O)[O-])cc1)c1nc2ccccc2s1
38.1

Sourced from ChEMBL document CHEMBL3596139
